# test target: human NaV 1.8 channels stably expressed in HEK 293 cells (Homo sapiens (Human))
# Sequence (Q9Y5Y9 whole entry): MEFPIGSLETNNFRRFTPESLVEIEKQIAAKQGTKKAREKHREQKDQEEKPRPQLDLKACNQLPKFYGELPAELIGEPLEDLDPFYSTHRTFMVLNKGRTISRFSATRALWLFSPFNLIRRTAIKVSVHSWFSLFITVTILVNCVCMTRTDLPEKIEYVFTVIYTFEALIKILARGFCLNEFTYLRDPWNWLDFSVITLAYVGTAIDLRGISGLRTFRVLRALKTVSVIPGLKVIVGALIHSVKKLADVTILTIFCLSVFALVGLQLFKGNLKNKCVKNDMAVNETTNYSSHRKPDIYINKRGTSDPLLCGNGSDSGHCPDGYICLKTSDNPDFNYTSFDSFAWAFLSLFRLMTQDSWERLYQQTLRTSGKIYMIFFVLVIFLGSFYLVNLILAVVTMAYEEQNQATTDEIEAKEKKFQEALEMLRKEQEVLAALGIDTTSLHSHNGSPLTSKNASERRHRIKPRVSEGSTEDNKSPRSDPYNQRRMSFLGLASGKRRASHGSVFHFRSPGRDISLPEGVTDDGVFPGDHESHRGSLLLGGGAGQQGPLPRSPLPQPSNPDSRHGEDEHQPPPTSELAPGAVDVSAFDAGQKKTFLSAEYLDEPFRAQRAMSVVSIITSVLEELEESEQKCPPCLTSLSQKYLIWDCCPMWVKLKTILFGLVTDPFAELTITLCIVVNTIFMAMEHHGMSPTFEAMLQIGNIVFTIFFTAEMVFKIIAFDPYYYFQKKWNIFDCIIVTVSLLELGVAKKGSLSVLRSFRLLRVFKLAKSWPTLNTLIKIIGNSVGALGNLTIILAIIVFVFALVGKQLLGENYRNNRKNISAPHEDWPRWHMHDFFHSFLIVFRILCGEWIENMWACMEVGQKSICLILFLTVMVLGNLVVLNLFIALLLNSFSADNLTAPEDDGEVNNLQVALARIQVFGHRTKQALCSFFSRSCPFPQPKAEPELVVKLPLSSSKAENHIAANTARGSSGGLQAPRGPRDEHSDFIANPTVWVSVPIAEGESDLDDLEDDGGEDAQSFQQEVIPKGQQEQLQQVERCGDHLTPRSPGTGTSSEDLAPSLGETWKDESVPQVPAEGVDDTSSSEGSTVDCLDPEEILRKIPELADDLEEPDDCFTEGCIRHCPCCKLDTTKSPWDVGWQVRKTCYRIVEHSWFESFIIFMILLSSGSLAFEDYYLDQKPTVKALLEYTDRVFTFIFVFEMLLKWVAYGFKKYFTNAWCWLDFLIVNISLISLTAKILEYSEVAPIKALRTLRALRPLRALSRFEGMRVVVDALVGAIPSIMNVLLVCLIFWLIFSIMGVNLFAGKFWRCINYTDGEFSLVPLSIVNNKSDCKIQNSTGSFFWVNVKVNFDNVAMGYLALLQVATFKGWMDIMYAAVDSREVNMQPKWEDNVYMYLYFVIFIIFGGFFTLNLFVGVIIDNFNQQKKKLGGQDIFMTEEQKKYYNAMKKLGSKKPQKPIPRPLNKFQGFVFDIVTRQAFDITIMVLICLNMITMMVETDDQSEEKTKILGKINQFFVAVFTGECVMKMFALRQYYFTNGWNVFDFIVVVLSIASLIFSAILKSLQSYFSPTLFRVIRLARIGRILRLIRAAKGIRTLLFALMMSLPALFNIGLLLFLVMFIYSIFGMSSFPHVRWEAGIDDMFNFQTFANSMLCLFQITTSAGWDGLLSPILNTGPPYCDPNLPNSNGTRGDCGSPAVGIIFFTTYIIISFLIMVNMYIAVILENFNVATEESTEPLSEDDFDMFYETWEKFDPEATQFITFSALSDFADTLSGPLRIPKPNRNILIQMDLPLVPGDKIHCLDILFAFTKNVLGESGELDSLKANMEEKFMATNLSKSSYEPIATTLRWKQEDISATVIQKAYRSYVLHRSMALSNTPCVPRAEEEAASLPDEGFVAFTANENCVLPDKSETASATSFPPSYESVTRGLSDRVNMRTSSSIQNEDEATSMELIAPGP
# experiment: Nav1.8 Qube automated patch-clamp assay
# Assay type: cell-based
# run parameters: human NaV1.8 in HEK 293 cells, whole-cell voltage clamp, room temperature; read-out: IC50 values (nM) for Examples in the Nav1.8 Qube Assay
Quick reference: IC50 of the listed items.
API: value field is a number in nM; no unit string.

# example entries with known answers
Consider the compound shown here: C[C@@H]1C(=O)NCCN1C(=O)NC(c1ccc(OC(F)(F)F)cc1)c1cc(C(F)(F)F)n[nH]1 (single isomer, unassigned) [Example 87B] What is its recorded IC50?
10.8

For the compound O=C1CN(C(=O)NC(c2ccc(Cl)c(F)c2)c2ccc(F)c(C(F)(F)F)n2)CCN1 (single isomer, unassigned) [Example 54A] , what IC50 is on record?
285

Sample C[C@@H]1C(=O)NCCN1C(=O)NC(c1ccc(OC(F)(F)F)c(Cl)c1)c1cnc(C(F)(F)F)c(Cl)c1 (single isomer, unassigned) [Example 22B] — what was its IC50?
2.88

Reported IC50, compound C[C@@H]1C(=O)NCCN1C(=O)NC(c1cnc(C(F)(F)F)nc1)c1ccc(F)c(Cl)c1 (single isomer, unassigned) [Example 69A] : ____
136

Which value of IC50 has been reported for C[C@@H]1C(=O)NCCN1C(=O)NC(c1ccc(OC(F)(F)F)nc1)c1ccc(F)c(C(F)(F)F)n1 (single isomer, unassigned) [Example 51B] in the records?
13.2

We now examine a further compound.
Can you look up the measured IC50 of C[C@@H]1C(=O)NCCN1C(=O)NC(c1ccc(C(F)(F)F)nc1)c1ccc(F)c(Cl)c1F (single isomer, unassigned) [Example 15A] for me?
4.74
